Let's go through some recorded IC50 values for Venus kinase receptor 2 (Schistosoma mansoni) together.

Example cases with answers are listed next.
Cc1cccc(Nc2nc(N[C@H]3CCCC[C@H]3N)ncc2C(N)=O)c1 5.69 µM
CC(C)Oc1ccc2c(-c3ccnc(Nc4ccc(N5CCN(C)CC5)cc4)n3)cnn2n1 20.1 µM

// next entry
**Q:** Fill: IC50 (Venus kinase receptor 2 (Schistosoma mansoni)) for this molecule CNC(=O)c1ccccc1Nc1nc(Nc2cccc(CS(C)(=O)=O)c2)ncc1C
**A:** 6.47 µM

----------
Let's go through some recorded pKd values for Venus kinase receptor 2 (Schistosoma mansoni, UniProt D5JEH1) together.
Note on units: pKd is unitless, being -log10 of a concentration expressed in mol/L.

Nc1nc(N)c2nc(-c3ccccc3)[nH]c2n1 4.09
Cc1cccc(Nc2nc(NCCN)ncc2C(N)=O)c1 5.35
Cc1cccc(Nc2nc(N[C@H]3CCCC[C@H]3N)ncc2C(N)=O)c1 5.71
NCCNS(=O)(=O)c1ccc(-c2ccnc3[nH]ccc23)cc1 5.60
CNC(=O)c1ccccc1Nc1nc(Nc2cccc(CS(C)(=O)=O)c2)ncc1C 6.36
NC(=O)Nc1sc(-c2ccc(F)cc2)cc1C(N)=O 4.80

**Q:** Identify pKd associated with the molecule Cc1n[nH]c2cc(Nc3ccnc(Nc4cccc(CN5CCOCC5)c4)n3)ccc12
**A:** 4.41

**Q:** Identify pKd associated with the molecule CN(C)CCNS(=O)(=O)c1ccc(-c2ccnc3[nH]ccc23)cc1
**A:** 5.09

**Q:** Identify pKd associated with the molecule CS(=O)(=O)Nc1ccc(-c2ccnc3[nH]ccc23)cc1
**A:** 5.11

**Q:** Identify pKd associated with the molecule CC(C)Oc1ccc2c(-c3ccnc(Nc4ccc(N5CCN(C)CC5)cc4)n3)cnn2n1
**A:** 5.47

**Q:** Identify pKd associated with the molecule Nc1n[nH]c2cnc(-c3ccccc3)cc12
**A:** 4.33

Origin of the recorded values: ChEMBL document CHEMBL5126676
